Each item that follows carries a reported IC50.
Test system: PC-3 (prostate cancer cells)
test name: Inhibitory activity against cancer cells (sulforhodamine B staining)
Type: cell-based
measurement parameters: 3 days, SRB staining
Procedure: In order to examine the anticancer activity of the nucleoside derivatives of the present invention synthesized in the Preparation Examples, the ICso of each of A549 (lung cancer cells), HCT116 (colon cancer cells), MDA-MB-231 (breast cancer cells), SK-Hep-1 (liver cancer cells), SNU638 (stomach cancer cells) and PC-3 (prostate cancer cells) against cancer cells was measured. The test method is as follows. Cells were allowed to stand for 1 day and set as a control on day 0. […]
recorded metric: IC50 (µM)

1. C#Cc1cn([C@@H]2S[C@H](CNC(=O)c3ccc(OC)cc3)[C@@H](O)[C@H]2O)c2ncnc(N)c12 [Compound 8c]	14.8
2. C#Cc1cn([C@@H]2SC[C@@H](O)[C@H]2O)c2ncnc(N)c12 [Compound 13a]	1.39
3. NC(=O)c1cn([C@@H]2S[C@H](COC(=O)c3ccccc3)[C@@H](O)[C@H]2O)c2ncnc(N)c12 [Compound 7h]	3.56
4. N#Cc1cn([C@@H]2S[C@H](CN)[C@@H](O)[C@H]2O)c2ncnc(N)c12 [Compound 10b]	2.45
5. C#Cc1cn([C@@H]2S[C@H](COC(=O)c3ccncc3)[C@@H](O)[C@H]2O)c2ncnc(N)c12 [Compound 7f]	0.078
6. C#Cc1cn([C@@H]2S[C@H](CNC(=O)c3ccccc3)[C@@H](O)[C@H]2O)c2ncnc(N)c12 [Compound 8b]	29.1
7. N#Cc1cn([C@@H]2S[C@H](CN=[N+]=[N-])[C@@H](O)[C@H]2O)c2ncnc(N)c12 [Compound 9b]	0.45
8. NC[C@H]1S[C@@H](n2cc(C(N)=O)c3c(N)ncnc32)[C@H](O)[C@@H]1O [Compound 10c]	2.74
9. C#Cc1cn([C@@H]2S[C@H](COC(=O)c3ccccc3)[C@@H](O)[C@H]2O)c2ncnc(N)c12 [Compound 7b]	2.05
10. C=Cc1cn([C@@H]2SC[C@@H](O)[C@H]2O)c2ncnc(N)c12 [Compound 13e]	5.34
11. C#Cc1cn([C@@H]2S[C@H](COC(=O)c3c(C)cccc3C)[C@@H](O)[C@H]2O)c2ncnc(N)c12 [Compound 7e]	5.59
12. C#Cc1cn([C@@H]2S[C@H](CN)[C@@H](O)[C@H]2O)c2ncnc(N)c12 [Compound 10a]	1.98
13. NC(=O)c1cn([C@@H]2S[C@H](CNC(=O)c3ccccc3)[C@@H](O)[C@H]2O)c2ncnc(N)c12 [Compound 8e]	4.65

* * *

study target: DYRK1B (Homo sapiens, UniProt Q9Y463)
Construct: made in house
Sequence (Q9Y463 whole entry): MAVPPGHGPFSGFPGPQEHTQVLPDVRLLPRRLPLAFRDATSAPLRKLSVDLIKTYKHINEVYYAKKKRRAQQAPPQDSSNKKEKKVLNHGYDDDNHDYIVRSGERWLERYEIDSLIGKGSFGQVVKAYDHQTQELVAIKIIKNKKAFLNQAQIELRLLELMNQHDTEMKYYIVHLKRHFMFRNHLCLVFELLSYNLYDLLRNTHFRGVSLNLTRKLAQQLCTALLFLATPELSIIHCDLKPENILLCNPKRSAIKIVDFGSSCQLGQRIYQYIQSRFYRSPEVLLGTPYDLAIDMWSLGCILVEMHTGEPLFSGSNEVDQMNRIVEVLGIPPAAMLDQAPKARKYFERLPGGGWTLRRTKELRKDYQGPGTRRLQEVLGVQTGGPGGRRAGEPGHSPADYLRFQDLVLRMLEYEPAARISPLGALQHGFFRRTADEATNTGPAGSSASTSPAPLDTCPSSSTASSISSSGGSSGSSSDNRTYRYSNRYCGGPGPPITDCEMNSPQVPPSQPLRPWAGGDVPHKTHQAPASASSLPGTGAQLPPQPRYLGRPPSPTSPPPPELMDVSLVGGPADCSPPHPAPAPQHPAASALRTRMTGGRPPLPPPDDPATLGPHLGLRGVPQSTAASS
test name: Kinase inhibition test (DNA-tagged kinase, affinity resin, qPCR readout)
Type: binding
Parameters: key: (−) indicates no effect; (+) indicates weak inhibitory activity; (++) indicates a moderate level of inhibitory activity; (+++) indicates strong inhibitory activity
measurement parameters: 1 μM of compound
recorded metric: DYRK1B inhibitory activity

1. C#Cc1cn([C@@H]2S[C@H](COC(=O)c3ccccc3)[C@@H](O)[C@H]2O)c2ncnc(N)c12	++
2. C#Cc1cn([C@@H]2S[C@H](COC(=O)c3ccncc3)[C@@H](O)[C@H]2O)c2ncnc(N)c12	++
3. C#Cc1cn([C@@H]2S[C@H](COC(=O)c3ccc(OC)cc3)[C@@H](O)[C@H]2O)c2ncnc(N)c12	++
4. N#Cc1cn([C@@H]2S[C@H](CNC(N)=O)[C@@H](O)[C@H]2O)c2ncnc(N)c12	++
5. CC(C)(C)C#Cc1cn([C@@H]2S[C@H](CO)[C@@H](O)[C@H]2O)c2ncnc(N)c12	−
6. Nc1ncnc2c1c(-c1ccccc1)cn2[C@@H]1S[C@H](CO)[C@@H](O)[C@H]1O	++
7. C#Cc1cn([C@@H]2S[C@H](COC(=O)c3ccc(Cl)cc3)[C@@H](O)[C@H]2O)c2ncnc(N)c12	++
8. N#Cc1cn([C@@H]2S[C@H](CNC(=O)c3ccccc3)[C@@H](O)[C@H]2O)c2ncnc(N)c12	+++
9. C#Cc1cn([C@@H]2S[C@H](CO)[C@@H](O)[C@H]2O)c2ncnc(N)c12	+++
